Just for reference, PubChem BioAssay (NCI) is where these values come from.

System: SK-OV-3 ovarian
Test: NCI tumour cell line growth inhibition, 48 h
TEST_READOUT: TGI (µM)
Output spec: scalar in µM, unitless text.

COCCOC1=CC(=O)c2c(O)ccc(O)c2C1=O : 31.7

Please turn your attention to the following entry.
*Q* Please report TGI with SK-OV-3 ovarian for item CC(C)CCCC(C)[C@H]1CC[C@H]2n3c(nc4ccccc43)CCC[C@]12C (stereo not given in full) .
*A* 30.9

* * *

Tested on: LXFL 529 NSCLC
Experiment: NCI tumour cell line growth inhibition, 48 h
TEST_READOUT: TGI (µM)
Output spec: scalar in µM, unitless text.

CN/C=C(\C(=O)c1ccc(OC)c(OC)c1)c1ccc(OC)cc1 : 30.2
CC(=O)Nc1ccc(-c2nnc(SCC(=O)Nc3cccc(Cl)c3)o2)cc1 : 24.8

Please turn your attention to the following entry.
*Q* Supply TGI value. Item: CCN(CC)CC(C)C(=O)/C=C/c1ccc(C)cc1 (stereo not given)
*A* 3.23

* * *

System: SN12C renal
Experiment: NCI tumour cell line growth inhibition, 48 h
Overview of recorded TGI for various compounds

O=C(c1ccccc1Cl)n1oc2ccccc2c1=O : > 100 µM
CCOc1cn(C2OC(CO)C(O)C2O)c(=O)[nH]c1=O (configuration not stated) : > 100 µM
C[C@@H](NS(=O)(=O)c1ccc(NC(=O)c2ccccc2)cc1)C(=O)O : > 100 µM
N#CC1=C2SCCN2C(=O)C(C#N)C12CCCCC2 (configuration not stated) : > 100 µM
C=CC(=O)NC(N)=NC#N : 293 µM
NC1CCCCC1N.O=C1C=C/C(=C(/c2ccc(O)c(Br)c2)c2ccccc2S(=O)(=O)[O-])C=C1Br.O=C1C=C/C(=C(/c2ccc(O)c(Br)c2)c2ccccc2S(=O)(=O)[O-])C=C1Br.[Pt+4] : > 100 µM

Please turn your attention to the following entry.
*Q* Supply TGI value. Item: CCOc1ccc(/C=C/c2cc(OC)c(OC)c(OC)c2)cc1
*A* > 28 µM

* * *

Test system: K-562 leukemia
Experiment: NCI tumour cell line growth inhibition, 48 h; in the data active means GI50 below about 0.43 µM; inactive means the rest
Thanks in advance; please answer with one of these: Yes (active), No (inactive)

Solved cases below.
CN(C)CC(=O)Nc1ccc2ncnc(Nc3ccc(Oc4cccc(C(F)(F)F)c4)c(Cl)c3)c2c1 : No
COc1ccc(C(=NN=C(N)N)c2ccc(OC)cc2)cc1 : No
O=C(C=P(c1ccccc1)(c1ccccc1)c1ccccc1)CCl : No
CC[C@@]1(O)C(=O)OCc2c1cc1n(c2=O)Cc2cc3ccccc3nc2-1 : Yes
N#Cc1c(NC(=O)c2ccc(F)cc2)sc2c1CCCC2 : No

*Q* Tell me the recorded outcome of this test for Cc1cnc2oc3ccc(O)cc3c2c1-c1ccccc1 .
*A* No

*Q* Tell me the recorded outcome of this test for COc1cc([N+](=O)[O-])c(OC)cc1-c1nc2sc(C)cn2c1/C(N)=N/C(=N)N .
*A* No

*Q* Tell me the recorded outcome of this test for C=CC(=O)NC(N)=NC#N .
*A* No

*Q* Tell me the recorded outcome of this test for COc1ccc(/C=C2\COc3ccc(O)c(O)c3C2=O)c(OC)c1OC .
*A* No

* * *

System: HL-60(TB) leukemia
Test: NCI tumour cell line growth inhibition, 48 h; in the data active means GI50 below about 0.43 µM; inactive means the rest
Thanks in advance; please answer with one of these: yes for active, no for inactive

Solved cases below.
Cn1cc(C2=C(c3cn(-c4ccccc4)c4ccccc34)C(=O)NC2=O)c2ccccc21 : no
COc1cc(/C=C2\CCC/C(=C\c3ccc(O)c(OC)c3)C2=O)ccc1O : yes
Cc1ccc(C=C2C(Cl)=C(Cl)C(Cl)=C2Cl)cc1 : yes
Cc1ccc2cccc(OC(=O)Nc3cccc(C(F)(F)F)c3)c2n1 : no
Clc1cc(Cl)c(OCCCCCCN2CCNCC2)c(Cl)c1 : no
COc1cc(-c2nc3sc(C)cn3c2/C=C2\C(=O)Nc3ccccc32)c(Br)c(OC)c1OC : no

*Q* Tell me the recorded outcome of this test for C=CC(=O)N1C[C@@H]2CCOc3c(Cl)c(-c4c(O)cccc4F)c(F)c4ncnc(c34)N2C[C@H]1C .
*A* no

*Q* Tell me the recorded outcome of this test for COC(=O)c1cc2oc(/C=C3/SC(=S)N(N)C3=O)cc2n1Cc1ccccc1 .
*A* no

*Q* Tell me the recorded outcome of this test for N#CC(C#N)=C1CCOc2ccc(F)cc21 .
*A* no

*Q* Tell me the recorded outcome of this test for CC1(C)N=C(N)N=C(N)N1c1ccc(OCCCNC(=O)Nc2cccc(S(=O)(=O)F)c2)c(Cl)c1 .
*A* no

*Q* Tell me the recorded outcome of this test for CN(C)CC(=O)Nc1ccc2ncnc(Nc3ccc(Oc4cccc(C(F)(F)F)c4)c(Cl)c3)c2c1 .
*A* no

*Q* Tell me the recorded outcome of this test for CC(C)(c1ccccc1)c1cc(O)c(C(C)(C)c2ccccc2)cc1O .
*A* no

*Q* Tell me the recorded outcome of this test for COc1ccc(C2CC(c3ccc(Nc4ccnc5cc(Cl)ccc45)cc3)=NN2C=O)cc1 (configuration not stated) .
*A* no

*Q* Tell me the recorded outcome of this test for O=C(O)c1cc(=O)cc(C(=O)O)o1 .
*A* no

*Q* Tell me the recorded outcome of this test for O=C(C=P(c1ccccc1)(c1ccccc1)c1ccccc1)CCl .
*A* no

*Q* Tell me the recorded outcome of this test for COC1=C(C)C(=O)c2c(c(CCCl)c3n2CCC3OC(C)=O)C1=O (configuration not stated) .
*A* no

*Q* Tell me the recorded outcome of this test for NC1CCCCC1N.O=C1C=C/C(=C(/c2ccc(O)c(Br)c2)c2ccccc2S(=O)(=O)[O-])C=C1Br.O=C1C=C/C(=C(/c2ccc(O)c(Br)c2)c2ccccc2S(=O)(=O)[O-])C=C1Br.[Pt+4] .
*A* no
